# ASSAY REMARKS: Chelator-induced uranium excretion (urine + bile, 24 h) in bile duct-cannulated rat model
# Format: in vivo
# MEASUREMENT CONDITIONS: 300 μmol/kg PO Immediate
VALUE KIND: Uranium Excretion [urine/bite]

COMPOUND: COc1ccc(C2=N[C@H](C(=O)O)CS2)c(O)c1
Uranium Excretion [urine/bite]: 43/57

Q: Form field: reported Uranium Excretion [urine/bite] of O=C(O)CN(CCN(CC(=O)O)CC(=O)O)CCN(CC(=O)O)CC(=O)O [drawing 16]
Ans: 100/0

====

# ASSAY REMARKS: Chelator-induced uranium excretion (urine + bile, 24 h) in bile duct-cannulated rat model
# Format: in vivo
# MEASUREMENT CONDITIONS: 300 μmol/kg PO Immediate
VALUE KIND: Uranium Excretion (µg/kg)
Value expressed in µg/kg; do not type the unit.

Example results:
MOLECULE: COc1ccc(C2=N[C@@H](C(=O)O)CS2)c(O)c1 [drawing 12]
UNIT LABEL: µg/kg
Uranium Excretion: 642

MOLECULE: O=C(O)CN(CCN(CC(=O)O)CC(=O)O)CCN(CC(=O)O)CC(=O)O [drawing 4]
UNIT LABEL: µg/kg
Uranium Excretion: 235

MOLECULE: O=C(O)CN(CCN(CC(=O)O)CC(=O)O)CCN(CC(=O)O)CC(=O)O [drawing 16]
UNIT LABEL: µg/kg
Uranium Excretion: 235

# context switch: different molecule, same Uranium Excretion
Q: Form field: reported Uranium Excretion of COc1ccc(C2=N[C@H](C(=O)O)CS2)c(O)c1
Ans: 642
